From: paper PMC11340408

tested on: MCF-7 cell line; assay: MTT assay, breast cancer MCF-7 cell line; assay type: cell-based, human; conditions: Homo sapiens, MCF7, 48 h, read-out: IC50 against MCF-7
pIC50: −log10 of the molar value.
Measured metric: pIC50

[
  {
    "Molecule": "Cn1c(=O)c2c(nc(Oc3ccc(/C=C/C(=O)c4ccc5ccccc5c4)cc3)n2C)n(C)c1=O [Compound 5e]",
    "Test system": "MCF-7 cell line",
    "pIC50": 3.48
  },
  {
    "Molecule": "CN(Cc1cnc2nc(N)nc(N)c2n1)c1ccc(C(=O)N[C@@H](CCC(=O)O)C(=O)O)cc1 [MTX, methotrexate, reference compound]",
    "Test system": "MCF-7 cell line",
    "pIC50": 3.46
  }
]
